Biological target: N-formyl peptide receptor 2 (Homo sapiens, UniProt P25090)
Sequence (P25090 whole entry): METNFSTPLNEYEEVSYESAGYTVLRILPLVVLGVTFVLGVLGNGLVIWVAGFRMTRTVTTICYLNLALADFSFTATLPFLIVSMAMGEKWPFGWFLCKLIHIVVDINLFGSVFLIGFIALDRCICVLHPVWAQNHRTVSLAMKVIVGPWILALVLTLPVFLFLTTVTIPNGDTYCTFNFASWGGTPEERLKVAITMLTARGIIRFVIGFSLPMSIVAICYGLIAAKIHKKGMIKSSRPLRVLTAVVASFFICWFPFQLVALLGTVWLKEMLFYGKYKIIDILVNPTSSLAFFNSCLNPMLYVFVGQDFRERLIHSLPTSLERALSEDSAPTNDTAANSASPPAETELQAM
Assay: FPRL1 fluorescent ligand binding inhibitors, dose response, cell-based, flow cytometry, Ki from IC50 (AID 766)
Settings: inactive by the depositor's call
Reported metric: pIC50
One number for each entry, as −log10 of the molar value.

Please look up its pIC50: COc1ccc(-c2cc(C(F)(F)F)nc(N3CCN(Cc4ccccc4)CC3)n2)cc1OC
4.78

----------
Provide the recorded IC50 for the entries that follow.
Target: N-formyl peptide receptor 2 (Homo sapiens)
Experiment: FPRL1 fluorescent ligand binding inhibitors, dose response, cell-based, flow cytometry, Ki from IC50 (AID 766)
Answers are plain numbers, in µM.

Below are worked cases with known answers.
COc1ccc(-c2cn3cccnc3n2)cc1NC(=O)C1CC1
6.7
COc1ccc(CC(=O)Nc2cc(-c3cn4cccnc4n3)ccc2OC)cc1
9.9

Please go through the list and note IC50 for each compound.
1. CCC(=O)Nc1cc(-c2cn3cccnc3n2)ccc1OC
2. COc1ccc(-c2cn3cccnc3n2)cc1NC(=O)C(C)C

1. 10.7
2. 3.6

----------
Provide the recorded IC50 for the entries that follow.
Target: N-formyl peptide receptor 2 (Homo sapiens)
Test: FPRL1 fluorescent ligand binding inhibitors, dose response, cell-based, flow cytometry, Ki from IC50 (AID 766)

Please go through the list and note IC50 for each molecule.
1. O=C(N1CCN(c2nc(-c3ccccc3)c3ccccc3n2)CC1)C(F)(F)F
2. COc1ccc(-c2cc(C(F)(F)F)nc(N3CCN(c4ccccc4)CC3)n2)cc1OC
3. COc1ccc(-c2cn3cccnc3n2)cc1NC(=O)C1CCCC1 [MLS000045945]
4. COc1ccc(-c2cc(C(F)(F)F)nc(N3CCN(C(c4ccccc4)c4ccccc4)CC3)n2)cc1OC
5. CCOC(=O)N1CCN(c2nc(-c3ccc(OC)c(OC)c3)cc(C(F)(F)F)n2)CC1

> 57.5 µM
> 50 µM
> 66.1 µM
> 41.6 µM
> 50.5 µM
